hNK2R, IP3 Efficacy values for the molecules below.
Target: hNK2R (Homo sapiens)
Construct: host or cells: COS-7
Sequence (P21452 1-398): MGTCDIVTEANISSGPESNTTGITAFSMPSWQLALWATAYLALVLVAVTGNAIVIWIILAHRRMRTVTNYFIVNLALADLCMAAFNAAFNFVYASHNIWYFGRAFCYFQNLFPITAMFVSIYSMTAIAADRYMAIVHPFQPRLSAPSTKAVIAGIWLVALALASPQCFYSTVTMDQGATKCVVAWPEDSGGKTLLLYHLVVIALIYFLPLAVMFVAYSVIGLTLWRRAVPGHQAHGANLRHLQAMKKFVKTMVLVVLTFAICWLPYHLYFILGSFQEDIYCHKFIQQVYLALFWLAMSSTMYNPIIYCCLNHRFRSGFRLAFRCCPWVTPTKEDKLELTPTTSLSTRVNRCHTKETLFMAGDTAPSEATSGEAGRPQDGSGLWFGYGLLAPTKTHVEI
Assay: IP3 assay (inositol trisphosphate, 3H-myoinositol) in transiently transfected COS-7 cells
Assay type: cell-based
Details: COS-7 cells; figure legends: percent of 10^-6 M NKA
Numbered stars: 1 amine (or outer) side, 2 acyl side, 3 side chain; on linkers, the order of the positions; unused ones are H or OH. Square brackets hold non-standard residues; d marks the D form. Peptide text beside a SMILES is read from it. * marks the point of attachment. C18 diacid = O=C(O)CCCCCCCCCCCCCCCCC(=O)*; γGlu = O=C(O)[C@H](CCC(=O)[*:2])N[*:1]; Stearoyl = CCCCCCCCCCCCCCCCCC(=O)*; NMeL = CN[C@@H](CC(C)C)C(=O)O; hSer = N[C@@H](CCO)C(=O)O; Nle = CCCC[C@H](N)C(=O)O; AEEA = NCCOCCOCC(=O)O
Value expressed in %; do not type the unit.

MOLECULE: COCC[C@H](NC(=O)[C@H](CC(C)C)N(C)C(=O)CNC(=O)[C@@H](NC(=O)[C@H](Cc1ccc(O)cc1)NC(=O)[C@H](CCCCN)NC(=O)[C@H](CCC(=O)O)NC(=O)COCCOCCNC(=O)COCCOCCNC(=O)CC[C@H](NC(=O)CCCCCCCCCCCCCCCCC(=O)O)C(=O)O)[C@@H](C)O)C(N)=O [compound 381, *Glu;Lys;Tyr;Thr;Gly;NmLeu;Metox;NH2] ({C18 diacid-γGlu-AEEA-AEEA}-EKYTG[NMeL][hSer](Me)-NH2)
hNK2R, IP3 Efficacy, %: 85
//
MOLECULE: CCCCCCCCCCCCCCCCCC(=O)N[C@@H](CCC(=O)NCCOCCOCC(=O)NCCOCCOCC(=O)N[C@@H](CC(=O)O)C(=O)N[C@@H](CCCCN)C(=O)N[C@@H](Cc1ccc(O)cc1)C(=O)N[C@H](C(=O)NCC(=O)N(C)[C@@H](CC(C)C)C(=O)N[C@@H](CCCC)C(N)=O)C(C)C)C(=O)O [compound 390, *Asp;Lys;Tyr;Val;Gly;NmLeu;Nle;NH2] ({Stearoyl-γGlu-AEEA-AEEA}-DKYVG[NMeL][Nle]-NH2)
hNK2R, IP3 Efficacy, %: 100

Q: Item under review: CCCC[C@H](NC(=O)[C@H](CC(C)C)N(C)C(=O)CNC(=O)[C@H](CCCNC(=N)N)NC(=O)[C@H](Cc1ccc(O)cc1)NC(=O)[C@H](CCCCN)NC(=O)[C@H](CCC(=O)O)NC(=O)COCCOCCNC(=O)COCCOCCNC(=O)CC[C@H](NC(=O)CCCCCCCCCCCCCCCCC(=O)O)C(=O)O)C(N)=O [compound 314, *Glu;Lys;Tyr;Arg;Gly;NmLeu;Nle;NH2] ({C18 diacid-γGlu-AEEA-AEEA}-EKYRG[NMeL][Nle]-NH2) . Reported hNK2R, IP3 Efficacy?
Result: 45
